target: hP2X2/3 (Homo sapiens, UniProt P56373+Q9UBL9)
Sequence (P56373 1-397): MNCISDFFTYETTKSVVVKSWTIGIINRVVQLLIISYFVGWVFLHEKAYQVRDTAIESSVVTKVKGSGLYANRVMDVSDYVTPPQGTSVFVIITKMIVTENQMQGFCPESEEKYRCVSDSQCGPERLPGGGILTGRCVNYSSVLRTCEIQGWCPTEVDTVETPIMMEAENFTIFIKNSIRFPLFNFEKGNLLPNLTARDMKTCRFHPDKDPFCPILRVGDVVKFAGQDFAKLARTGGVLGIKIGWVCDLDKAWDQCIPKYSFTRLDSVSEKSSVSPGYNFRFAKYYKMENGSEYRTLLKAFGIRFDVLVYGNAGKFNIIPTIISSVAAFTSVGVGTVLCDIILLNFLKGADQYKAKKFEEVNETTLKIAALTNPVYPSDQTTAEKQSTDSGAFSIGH
Sequence (Q9UBL9 1-471): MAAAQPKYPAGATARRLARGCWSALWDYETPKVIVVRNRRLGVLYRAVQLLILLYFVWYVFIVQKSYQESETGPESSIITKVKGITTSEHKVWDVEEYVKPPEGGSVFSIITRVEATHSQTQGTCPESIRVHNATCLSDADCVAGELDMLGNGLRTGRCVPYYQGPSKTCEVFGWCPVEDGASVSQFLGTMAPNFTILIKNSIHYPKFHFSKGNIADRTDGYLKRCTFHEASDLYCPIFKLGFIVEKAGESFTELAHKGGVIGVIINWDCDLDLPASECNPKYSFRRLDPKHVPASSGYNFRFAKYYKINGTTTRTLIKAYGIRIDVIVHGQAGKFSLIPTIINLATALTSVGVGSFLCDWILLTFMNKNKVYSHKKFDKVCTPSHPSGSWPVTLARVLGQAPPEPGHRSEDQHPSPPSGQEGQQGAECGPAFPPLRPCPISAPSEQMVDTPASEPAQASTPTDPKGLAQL
assay_overview: FLIPR intracellular calcium assay, hP2X2/3
measurement_setup: human P2X2/3-TRex293 cells, agonist at EC75
pIC50: −log10 of the molar value.
measured_metric: pIC50

The cases that follow already have their pIC50 on record.
{"columns": ["compound", "pIC50"],
 "data": [
  ["CC(=O)N1CCN(c2nc(NC(C)(C)Cc3ccc(Cl)cc3)c3nn(C(C)C)cc3n2)CC1 [Example 3]", "5.00 to 6.00"],
  ["CC(=O)N1CCN(c2nc(N[C@H](C)c3cnc4ccccc4c3)c3nn(C(C)C)c(C#N)c3n2)CC1 [Example 103]", "< 5.00"],
  ["CC[C@H](C)n1ncc2nc(N3CCN(C(C)=O)CC3)nc(NC(COC)c3cnc4ccccc4c3)c21 (stereo partly shown) [Example 82]", "5.00 to 6.00"]
]}

## Task Which pIC50 value is on record for CCC(C)n1ncc2nc(C(=O)NC3CC3)nc(N[C@@H](c3cnc4ccccc4c3)C3CC3)c21 (stereo partly shown) [Example 124] ?
## Result 5.00 to 6.00

## Task Please do the same for CC(=O)N1CCN(c2nc(NC(C)(C)Cc3ccc(Cl)cc3)c3nn(C(C)C)c(C)c3n2)CC1 [Example 101] as well.
## Result 5.00 to 6.00

## Task Cool, now CCC(CC)n1ncc2nc(N3CCN(C(C)=O)CC3)nc(NC(C)c3ccc4oc(C5CC5)cc4c3)c21 (stereo not shown) [Example 55]
## Result 6.00 to 7.00

## Task One more compound: CC(=O)N1CCN(c2nc(N[C@H](C)c3cnc4ccccc4c3)c3nn(C(C)C)c(Cl)c3n2)CC1 [Example 99]
## Result 5.00 to 6.00

---

target: hP2X2/3 (Homo sapiens, UniProt P56373+Q9UBL9)
assay_overview: FLIPR intracellular calcium assay, hP2X2/3
measurement_setup: human P2X2/3-TRex293 cells, agonist at EC75
measured_metric: IC50

Please review the entries below; each comes with its answer.
{"columns": ["molecule", "IC50"],
 "data": [
  ["CC(=O)N1CCN(c2nc(N[C@H](C)c3cnc4ccccc4c3)c3nn(C(C)C)c(C)c3n2)CC1 [Example 102]", "> 10000 nM"],
  ["CC[C@@H](C)n1ncc2nc(N3CCN(C(C)=O)CC3)nc(N[C@H](C)c3cnc4ccccc4c3)c21 [Example 21]", "1000 to 10000 nM"],
  ["CC(=O)N1CCN(c2nc(N[C@H](C)c3cnc4ccccc4c3)c3c(cnn3C(C3CC3)C3CC3)n2)CC1 [Example 34]", "1 to 100 nM"],
  ["CCC(C)n1ncc2nc(-c3cccnn3)nc(N[C@@H](c3cnc4ccccc4c3)C3CC3)c21 (stereo partly drawn) [Example 127]", "1000 to 10000 nM"],
  ["CCC(C)n1ncc2nc(-c3cn[nH]c3)nc(N[C@@H](c3cnc4ccccc4c3)C3CC3)c21 (stereo partly drawn) [Example 119]", "1000 to 10000 nM"]
]}

Pending molecule:
## Task Any idea what its IC50 is? The molecule is CCC(C)n1ncc2nc(N3CCN(C(C)=O)CC3)nc(NC(C)c3ccc4oc(C)cc4c3)c21 (stereo not drawn) [Example 45]
## Result 1000 to 10000 nM

---

Overview of recorded pIC50 for various compounds
target: hP2X2/3 (Homo sapiens, UniProt P56373+Q9UBL9)
Sequence (P56373 1-397): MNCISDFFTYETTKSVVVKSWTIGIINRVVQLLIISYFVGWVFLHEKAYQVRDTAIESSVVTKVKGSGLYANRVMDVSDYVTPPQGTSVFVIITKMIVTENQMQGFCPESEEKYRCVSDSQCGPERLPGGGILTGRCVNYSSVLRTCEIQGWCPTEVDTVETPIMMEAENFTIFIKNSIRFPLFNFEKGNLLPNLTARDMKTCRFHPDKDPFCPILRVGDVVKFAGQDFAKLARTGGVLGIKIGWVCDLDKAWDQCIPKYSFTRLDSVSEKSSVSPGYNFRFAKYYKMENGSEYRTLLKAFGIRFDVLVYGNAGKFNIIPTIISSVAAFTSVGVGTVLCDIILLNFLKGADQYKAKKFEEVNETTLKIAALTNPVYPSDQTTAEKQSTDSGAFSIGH
Sequence (Q9UBL9 1-471): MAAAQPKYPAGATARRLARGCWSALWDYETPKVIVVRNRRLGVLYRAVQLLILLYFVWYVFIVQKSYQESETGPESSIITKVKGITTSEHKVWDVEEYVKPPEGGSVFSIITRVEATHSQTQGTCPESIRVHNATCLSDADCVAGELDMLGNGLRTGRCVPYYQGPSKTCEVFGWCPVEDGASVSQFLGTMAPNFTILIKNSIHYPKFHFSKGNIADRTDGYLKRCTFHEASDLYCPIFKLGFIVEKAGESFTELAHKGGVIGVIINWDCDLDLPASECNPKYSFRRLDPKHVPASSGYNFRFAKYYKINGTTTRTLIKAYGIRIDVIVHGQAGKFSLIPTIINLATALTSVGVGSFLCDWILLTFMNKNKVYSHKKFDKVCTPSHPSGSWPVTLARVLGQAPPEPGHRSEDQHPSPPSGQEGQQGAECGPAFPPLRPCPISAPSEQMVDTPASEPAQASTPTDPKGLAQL
assay_overview: FLIPR intracellular calcium assay, hP2X2/3
measurement_setup: human P2X2/3-TRex293 cells, agonist at EC75
pIC50: −log10 of the molar value.

Recorded results for 2 compounds are shown here.
{"columns": ["compound", "target", "pIC50"],
 "data": [
  ["CC(=O)N1CCN(c2nc(N[C@H](C)c3cnc4ccccc4c3)c3c(cnn3CC3CCC3)n2)CC1", "hP2X2/3 (Homo sapiens, UniProt P56373+Q9UBL9)", "5.00 to 6.00"],
  ["COCC(C)n1ncc2nc(N3CCN(C(C)=O)CC3)nc(N[C@H](C)c3cnc4ccccc4c3)c21 (stereo partly shown)", "hP2X2/3 (Homo sapiens, UniProt P56373+Q9UBL9)", "5.00 to 6.00"]
]}

## Task Item CC(=O)N1CCN(c2nc(N[C@H](C)c3cnc4ccccc4c3)c3c(n2)c(C#N)nn3C(C)C)CC1 has what recorded pIC50?
## Result < 5.00

## Task Subsequent entry: CC(=O)N1CCN(c2nc(NC(C)c3cnc4ccccc4c3)c3nn(C(C)C)c(Br)c3n2)CC1 (stereo not shown)
## Result 5.00 to 6.00

## Task Now this one: CC(=O)N1CCN(c2nc(N[C@H](C)c3cnc4ccccc4c3)c3c(n2)c(Br)nn3C(C)C)CC1
## Result 5.00 to 6.00

## Task Follow-up item: CCN1CCN(c2nc(N[C@H](C)c3cnc4ccccc4c3)c3c(cnn3C(C)C)n2)CC1=O
## Result 5.00 to 6.00

## Task Also check CCC(C)n1ncc2nc(-n3cc(C(N)=O)nn3)nc(N[C@@H](c3cnc4ccccc4c3)C3CC3)c21 (stereo partly shown)
## Result 5.00 to 6.00

## Task Likewise for CC(C)n1ncc2nc(N3CCN(C)C(=O)C3)nc(N[C@H](C)c3cnc4ccccc4c3)c21 ?
## Result 5.00 to 6.00

## Task How about CCC(C)n1nc2c(N[C@H](C)c3cnc4ccccc4c3)nc(N3CCN(C(C)=O)CC3)nc2c1Br (stereo partly shown) ?
## Result 5.00 to 6.00

## Task // next record CCC(CC)n1ncc2nc(N3CCN(C(C)=O)CC3)nc(NC(C)c3ccc(OC(C)C)cc3)c21 (stereo not shown)
## Result 5.00 to 6.00
